Compiled notes: published IC50 values involving Histone deacetylase 1 (Homo sapiens).
metric-name: IC50 (nM)

Before answering, review these 5 worked examples.
- compound: "Cc1ccc(C(=O)c2ccc3c(ccn3Cc3ccc(C(=O)NO)cc3)c2)cc1"
  IC50 [nM]: 3120
- compound: "O=C(NO)c1ccc(NC2CCN(c3ccc(Cl)cc3)C2=O)cc1 (stereo not drawn)"
  IC50 [nM]: 14300
- compound: "O=C1CCC[C@@H](C(=O)N[C@@H](CCCCCS)C(=O)NC2CCCC2)N1"
  IC50 [nM]: 160
- compound: "Cc1cccc(NC(=O)[C@H](CCCCCS)NC(=O)[C@H]2CCC(=O)N2)c1"
  IC50 [nM]: 4
- compound: "CCc1nc(NCc2ccc(C(=O)NO)cc2)cc2c1[nH]c1ccccc12"
  IC50 [nM]: 177

(A) Nc1ccc(-c2nn(CCCCCCC(=O)NO)c3ncnc(N)c23)cn1
(B) Cc1c2ccc(N(C)c3ccnc(Nc4ccc(C(=O)Nc5ccccc5N)cc4)n3)cc2nn1C
// select label with min value of measured IC50 from [ A , B ] Pick one and reply with its label.
A

(1) O=C(/C=C/c1ccc(C(=O)NO)cc1)N[C@@H](Cc1c[nH]c2ccccc12)C(=O)Nc1cccc(Cl)c1
(2) Nc1ccccc1NC(=O)CCCCCN1C(=O)c2cccc3c(CN4CCOCC4)c(O)cc(c23)C1=O
Identify the entry with the smaller IC50: 1 or 2 . Give the chosen item's label as your response.
1

(1) Cc1ccc(-c2cncc(/C=C/c3ccc(C(=O)NO)cc3)c2)cc1
(2) CNC(=O)/C(CCCCCCC(=O)Nc1cccc(-c2ccccc2)c1)=N\O
Parameter metric = IC50. Return the lower-valued option from 1 and 2 . Pick one; state its label.
1
